tested on: 188146-221-R-J1-PDC complex spheroid viability; experiment: Anticancer human tumor 188146-221-R-J1-PDC patient-derived colon adenocarcinoma cell line growth inhibition [POLQ]; conditions: curve of first compound; second compound 3.16 µM;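 note: spheroids exposed to compounds for seven days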
assay_endpoint: IC50 (µM)
# unit: µM | format: bare number

CCCS(=O)(=O)Nc1ccc(F)c(C(=O)c2c[nH]c3ncc(-c4ccc(Cl)cc4)cc23)c1F + Nc1ccc(C#CCN(C(=O)Cc2ncc(C(F)(F)F)cc2C(F)(F)F)c2ccc(F)cc2)nn1 :: 6.27

Let us move to another entry and its IC50.
The measured IC50 associated with CCCS(=O)(=O)Nc1ccc(F)c(C(=O)c2c[nH]c3ncc(-c4ccc(Cl)cc4)cc23)c1F + Cc1cccc(N(C)C(=O)C2C(O)CCN2c2nc(C)cc(C(F)(F)F)c2C#N)c1 reads 7.14
